Where do the numbers come from? From the supplement of paper PMC11451515.

# System: SEM cells
# assay info: cell viability relative to DMSO control; higher = less cytotoxic
# measurement parameters: RPMI 5 mM glucose + 10% dialyzed FBS; 48 h; 0.00702 µM
Reported values of cell viability for individual entries
Response body: numeric value in %, unit text excluded.

CCN1CCN(C(=O)Cc2ccc(Nc3ncc(F)c(Nc4ccc(C(=O)Nc5ccccc5Cl)cc4)n3)cc2)CC1    111
COC1=CC=C2CN(C)CC[C@@]34\C=C/[C@H](O)C[C@@H]3OC1=C24    126
C[C@@]1(C(=O)Nc2ccc(F)nc2)CCCN1c1nc(Nc2cc(C3CC3)[nH]n2)c2cccn2n1    102
OC[C@H]1O[C@@H]2[C@@H](OC\3=N\C(=N)\C=C/[N@@]23)[C@@H]1O    99.8

Need cell viability of CO/N=C(/C(=O)N[C@@H]1C(=O)N2C(C(=O)O)=C(CSC(=O)c3ccco3)CS[C@H]12)c1csc(N)n1 , thanks. 107

---

Some compounds, each annotated with its measured cell viability.
# Test system: NOMO1
# assay info: cell viability relative to DMSO control; higher = less cytotoxic
# measurement parameters: RPMI 5 mM glucose + 10% FBS; 48 h; 0.00702 µM
Report as a plain number; the unit % is understood.

// worked examples, cell viability included
CN(C)CCN1C(=O)c2cccc3cc(N)cc(c23)C1=O    135
Cc1noc(-c2ccc(CSCCC(=O)O)cc2)c1NC(=O)OC(C)c1ccccc1Cl (stereo not drawn)    99

Now take the following compound into account.
# cell viability lookup, item CC(C)(C)[C@H](NC(=O)c1ccc(N)c(Cl)c1)C(=O)N1CCC[C@H]1C(=O)N[C@H](C#N)CC(=O)O 112

---

# System: P12-Ichikawa
# assay info: cell viability relative to DMSO control; higher = less cytotoxic
# measurement parameters: HPLM + 10% dialyzed FBS; 48 h; 46.1 µM
reported metric: cell viability

Worked set:
O=C(/C=C/c1ccc(O)cc1)c1ccc(O)cc1O    43.1%
C[C@@H](O)[C@@H]1NC(=O)[C@H](CCCCN)NC(=O)[C@@H](Cc2c[nH]c3ccccc23)NC(=O)[C@H](Cc2ccccc2)NC(=O)[C@@H](NC(=O)[C@H](N)Cc2ccccc2)CSSC[C@@H](C(=O)N[C@H](CO)[C@@H](C)O)NC1=O    95%
CN1CCN(CCCN2c3ccccc3Sc3ccc(C(F)(F)F)cc32)CC1    12.4%
OCCn1cc(-c2cnc3nnn(Cc4ccc5ncccc5c4)c3n2)cn1    75.4%
COc1cccc2c1[C@]13CCN(CC4CC4)[C@H](C2)[C@]1(OC)CCC(=O)C3    119%
NC(=O)Nc1cc(-c2cccc(F)c2)sc1C(=O)N[C@H]1CCCNC1    6.66%
COc1cc(N2CCC(N(C)C)CC2)ccc1Nc1ncc(Cl)c(Nc2ccccc2P(C)(C)=O)n1    30.7%
COc1cc(/C=C/C(=O)O)ccc1O    107%

Query for P12-Ichikawa: what cell viability does the record show for N#C/N=C(\NCCCCCCOc1ccc(Cl)cc1)Nc1ccncc1 ? 2.54%

---

# Tested on: NOMO1
# assay info: cell viability relative to DMSO control; higher = less cytotoxic
# measurement parameters: RPMI 5 mM glucose + 10% FBS; 48 h; 46.1 µM
cell viability strictly under 60% means Satisfied; at 60% or over means Not satisfied.

Please review the entries below; each comes with its answer.
NC/1=N/C(=O)N(/C=N1)[C@@H]2O[C@H](CO)[C@@H](O)[C@H]2O    Satisfied
CC1(C)C(N(O)C(=O)Nc2ccc(Cl)cc2)N(c2ccc(Cl)cc2)C(=O)N1CC(=O)N/N=C/C=C/c1ccc([N+](=O)[O-])o1 (stereo unspecified)    Not satisfied
COc1cc(C(=O)NS(=O)(=O)c2ccccc2C)ccc1Cc1cn(C)c2ccc(NC(=O)OC3CCCC3)cc12    Satisfied
C[C@@H](O)[C@@H]1NC(=O)[C@H](CCCCN)NC(=O)[C@@H](Cc2c[nH]c3ccccc23)NC(=O)[C@H](Cc2ccccc2)NC(=O)[C@@H](NC(=O)[C@H](N)Cc2ccccc2)CSSC[C@@H](C(=O)N[C@H](CO)[C@@H](C)O)NC1=O    Not satisfied
COC(=O)\C1=C\CCN(C)C1    Not satisfied
NC(=O)NO    Satisfied
N#C/C(C(=O)c1ccc(Cl)cc1Cl)=C1/NC(=O)c2ccc(Cl)cc2N1    Not satisfied
CC(C)(C)[C@H](NC(=O)c1ccc(N)c(Cl)c1)C(=O)N1CCC[C@H]1C(=O)N[C@H](C#N)CC(=O)O    Satisfied
Cc1ncc([N+](=O)[O-])n1CC(C)O (stereo unspecified)    Not satisfied
OC1=CC2=C(C(=C1)O)C(=O)\C(=C(/O2)C3=CC(=C(O)C=C3)O)O    Not satisfied

State whether 60% exceeds cell viability recorded for O=C(/C=C/c1ccc(O)cc1)c1ccc(O)cc1O . Not satisfied

Is cell viability strictly under 60% for the entry Cc1c[nH]c(-c2cnc(NCCNc3ccc(C#N)cn3)nc2-c2ccc(Cl)cc2Cl)n1 ? Not satisfied

cell viability strictly < 60% for this compound? Cc1noc(-c2ccc(CSCCC(=O)O)cc2)c1NC(=O)OC(C)c1ccccc1Cl (stereo unspecified) Not satisfied

For OC[C@H]1O[C@@H](Oc2cc(O)cc(/C=C/c3ccc(O)cc3)c2)[C@H](O)[C@@H](O)[C@@H]1O , is the recorded cell viability below the cut-off of 60%? Not satisfied

Does the reported cell viability of CC/1=C(\O)C(=O)\C=C2/C1=C/C=C3\[C@@]2(C)CC[C@@]4(C)[C@@H]5C[C@@](C)(CC[C@]5(C)CC[C@]34C)C(O)=O stay below 60%? Satisfied

For this compound, is cell viability lower than 60%? CCN(c1ccccc1)c1cc(NC)[n+](C)c(C)n1 Not satisfied

Record COc1ccc2cc1Oc1ccc(cc1)C[C@H]1c3cc(c(OC)cc3CCN1C)Oc1c(OC)c(OC)cc3c1[C@H](C2)N(C)CC3 : is its cell viability strictly below 60%? Not satisfied
